System: SV3T3
Assay: Antiproliferative activity against virus transformed mouse fibroblast 3T3 SV40 cells
Type: functional
Details: read-out: ED50 (the source's name)
Readout Kind: pEC50
One number for each entry, as −log10 of the molar value.

Oc1ccc2cc(O[C@@H]3OC[C@@H](O)[C@H](O)[C@H]3O)ccc2c1	3.49

# map each molecule to its pEC50
1. Oc1cc(O[C@@H]2OC[C@@H](O)[C@H](O)[C@H]2O)c2ccccc2c1
2. Oc1cccc2ccc(O[C@@H]3OC[C@@H](O)[C@H](O)[C@H]3O)cc12
3. Oc1cccc2cc(O[C@@H]3OC[C@@H](O)[C@H](O)[C@H]3O)ccc12

Result:
3.56
3.29
3.37

* * *

Experiment: Dissociation constant, pKa of the compound
Type: physicochemical
Please respond with reported pKa for every item in the list.
Numbers only.

# annotated cases, reported pKa shown
Oc1cc(O[C@@H]2OC[C@@H](O)[C@H](O)[C@H]2O)cc2ccccc12	8.66
Oc1cccc2ccc(O[C@@H]3OC[C@@H](O)[C@H](O)[C@H]3O)cc12	9.29
Oc1ccc2cc(O[C@@H]3OC[C@@H](O)[C@H](O)[C@H]3O)ccc2c1	9.63

# map each molecule to its pKa
1. Oc1ccc2ccccc2c1O[C@@H]1OC[C@@H](O)[C@H](O)[C@H]1O
2. Oc1ccc2ccc(O[C@@H]3OC[C@@H](O)[C@H](O)[C@H]3O)cc2c1

Result:
[8.63, 9.41]

* * *

Tested on: SV3T3
Experiment: Antiproliferative activity against virus transformed mouse fibroblast 3T3 SV40 cells
Type: functional
Details: read-out: ED50 (the source's name)
Readout Kind: pEC50
Numbers only, as −log10 of the molar value.

# map each compound to its pEC50
1. Oc1c(O[C@@H]2OC[C@@H](O)[C@H](O)[C@H]2O)ccc2ccccc12
2. Oc1ccc2cccc(O[C@@H]3OC[C@@H](O)[C@H](O)[C@H]3O)c2c1
3. Oc1ccc2ccc(O[C@@H]3OC[C@@H](O)[C@H](O)[C@H]3O)cc2c1
4. Oc1cccc2cccc(O[C@@H]3OC[C@@H](O)[C@H](O)[C@H]3O)c12

Result:
3.92
3.26
3.34
3.47

* * *

System: BALB/3T3
Experiment: Antiproliferative activity against mouse fibroblast 3T3 A31 cells
Type: functional
Settings: read-out: ED50 (the source's name)
Readout Kind: EC50 (µM)
Numbers only, in µM.

Oc1ccc2ccc(O[C@@H]3OC[C@@H](O)[C@H](O)[C@H]3O)cc2c1	300
Oc1cc(O[C@@H]2OC[C@@H](O)[C@H](O)[C@H]2O)c2ccccc2c1	130
Oc1ccc2ccccc2c1O[C@@H]1OC[C@@H](O)[C@H](O)[C@H]1O	10

# map each compound to its EC50
1. Oc1cc2ccccc2cc1O[C@@H]1OC[C@@H](O)[C@H](O)[C@H]1O
2. Oc1cccc2cccc(O[C@@H]3OC[C@@H](O)[C@H](O)[C@H]3O)c12
3. Oc1c(O[C@@H]2OC[C@@H](O)[C@H](O)[C@H]2O)ccc2ccccc12
4. Oc1ccc2cc(O[C@@H]3OC[C@@H](O)[C@H](O)[C@H]3O)ccc2c1
5. Oc1ccc2cccc(O[C@@H]3OC[C@@H](O)[C@H](O)[C@H]3O)c2c1
6. Oc1cc(O[C@@H]2OC[C@@H](O)[C@H](O)[C@H]2O)cc2ccccc12
7. Oc1ccc2c(O[C@@H]3OC[C@@H](O)[C@H](O)[C@H]3O)cccc2c1
8. Oc1cccc2ccc(O[C@@H]3OC[C@@H](O)[C@H](O)[C@H]3O)cc12

Result:
[25, 185, 120, 440, 260, 410, 210, 160]

Problem: Need EC50, item Oc1ccc(O[C@@H]2OC[C@@H](O)[C@H](O)[C@H]2O)c2ccccc12
Result: 165

* * *

Tested on: T-24
Assay: Ability to prime Heparan sulfate synthesis in T24 cells at 0.1 mM
Assay type: functional, Homo sapiens
Please respond with reported Activity for every item in the list.

Oc1cc(O[C@@H]2OC[C@@H](O)[C@H](O)[C@H]2O)c2ccccc2c1	14%

# map each molecule to its Activity
1. Oc1cccc2cc(O[C@@H]3OC[C@@H](O)[C@H](O)[C@H]3O)ccc12
2. Oc1ccc2cccc(O[C@@H]3OC[C@@H](O)[C@H](O)[C@H]3O)c2c1
3. Oc1ccc2ccccc2c1O[C@@H]1OC[C@@H](O)[C@H](O)[C@H]1O
4. Oc1cccc2c(O[C@@H]3OC[C@@H](O)[C@H](O)[C@H]3O)cccc12
5. Oc1ccc2ccc(O[C@@H]3OC[C@@H](O)[C@H](O)[C@H]3O)cc2c1
6. Oc1cccc2cccc(O[C@@H]3OC[C@@H](O)[C@H](O)[C@H]3O)c12

Result:
12%
15%
2%
29%
37%
27%

# map each molecule to its Activity
1. Oc1ccc2c(O[C@@H]3OC[C@@H](O)[C@H](O)[C@H]3O)cccc2c1
2. Oc1cc(O[C@@H]2OC[C@@H](O)[C@H](O)[C@H]2O)cc2ccccc12
3. Oc1cccc2ccc(O[C@@H]3OC[C@@H](O)[C@H](O)[C@H]3O)cc12
4. Oc1ccc(O[C@@H]2OC[C@@H](O)[C@H](O)[C@H]2O)c2ccccc12
5. Oc1cc2ccccc2cc1O[C@@H]1OC[C@@H](O)[C@H](O)[C@H]1O

Result:
1: 13%; 2: 20%; 3: 27%; 4: 12%; 5: 28%

# map each molecule to its Activity
1. Oc1ccc2cc(O[C@@H]3OC[C@@H](O)[C@H](O)[C@H]3O)ccc2c1
2. Oc1c(O[C@@H]2OC[C@@H](O)[C@H](O)[C@H]2O)ccc2ccccc12

Result:
["30%", "22%"]

* * *

Assay: Dissociation constant, pKa of the compound
Format: physicochemical
Use 9 as the dividing line for pKa, with the line itself on the Met side and lower values as Not met.

Field: example entries. Status: answers known.
Oc1ccc(O[C@@H]2OC[C@@H](O)[C@H](O)[C@H]2O)c2ccccc12	Met
Oc1c(O[C@@H]2OC[C@@H](O)[C@H](O)[C@H]2O)ccc2ccccc12	Not met
Oc1ccc2cccc(O[C@@H]3OC[C@@H](O)[C@H](O)[C@H]3O)c2c1	Met
Oc1ccc2c(O[C@@H]3OC[C@@H](O)[C@H](O)[C@H]3O)cccc2c1	Met

# next compound below
Problem: Textbook exercise: given the entry Oc1cccc2cccc(O[C@@H]3OC[C@@H](O)[C@H](O)[C@H]3O)c12 , state whether its pKa is greater than or equal to 9.
Result: Met

* * *

Please respond with reported EC50 for every item in the list.
System: T-24
Assay: Antiproliferative activity against human bladder carcinoma T24 cells
Format: functional
Conditions: read-out: ED50 (the source's name)
Give bare numbers, in µM.

Oc1cc(O)c2ccccc2c1	70
Oc1cc2ccccc2cc1O[C@@H]1OC[C@@H](O)[C@H](O)[C@H]1O	400
Oc1ccc(O)c2ccccc12	0.7
Oc1cccc2cccc(O[C@@H]3OC[C@@H](O)[C@H](O)[C@H]3O)c12	220
Oc1cc2ccccc2cc1O	30

# map each molecule to its EC50
1. Oc1cccc2ccc(O[C@@H]3OC[C@@H](O)[C@H](O)[C@H]3O)cc12
2. Oc1ccc(O[C@@H]2OC[C@@H](O)[C@H](O)[C@H]2O)c2ccccc12
3. Oc1cc(O[C@@H]2OC[C@@H](O)[C@H](O)[C@H]2O)cc2ccccc12

Result:
1: 420; 2: 1; 3: 25

* * *

Tested on: SV3T3
Assay: Antiproliferative activity against virus transformed mouse fibroblast 3T3 SV40 cells
Assay type: functional
Conditions: read-out: ED50 (the source's name)
Readout Kind: pEC50
Answers are plain numbers, as −log10 of the molar value.

# map each compound to its pEC50
1. Oc1ccc(O[C@@H]2OC[C@@H](O)[C@H](O)[C@H]2O)c2ccccc12
2. Oc1ccc2ccccc2c1O[C@@H]1OC[C@@H](O)[C@H](O)[C@H]1O
3. Oc1cc(O[C@@H]2OC[C@@H](O)[C@H](O)[C@H]2O)cc2ccccc12

Result:
[3.98, 4.19, 3.24]

Problem: What is its pEC50 for SV3T3? Entry: Oc1cc2ccccc2cc1O[C@@H]1OC[C@@H](O)[C@H](O)[C@H]1O
Result: 3.74

* * *

Assay: Dissociation constant, pKa of the compound
Assay type: physicochemical
Please respond with reported pKa for every item in the list.
One number for each entry.

Oc1cccc2c(O[C@@H]3OC[C@@H](O)[C@H](O)[C@H]3O)cccc12	9.16
Oc1cc2ccccc2cc1O[C@@H]1OC[C@@H](O)[C@H](O)[C@H]1O	8.76
Oc1cccc2cc(O[C@@H]3OC[C@@H](O)[C@H](O)[C@H]3O)ccc12	9.17

Next item in the queue.
Problem: Need pKa, item Oc1cc(O[C@@H]2OC[C@@H](O)[C@H](O)[C@H]2O)c2ccccc2c1
Result: 9.22
